# pEC50 per record follows
# TESTED SYSTEM: MAP kinase-activated protein kinase 2 (Homo sapiens, UniProt P49137)
# Sequence (P49137 whole entry): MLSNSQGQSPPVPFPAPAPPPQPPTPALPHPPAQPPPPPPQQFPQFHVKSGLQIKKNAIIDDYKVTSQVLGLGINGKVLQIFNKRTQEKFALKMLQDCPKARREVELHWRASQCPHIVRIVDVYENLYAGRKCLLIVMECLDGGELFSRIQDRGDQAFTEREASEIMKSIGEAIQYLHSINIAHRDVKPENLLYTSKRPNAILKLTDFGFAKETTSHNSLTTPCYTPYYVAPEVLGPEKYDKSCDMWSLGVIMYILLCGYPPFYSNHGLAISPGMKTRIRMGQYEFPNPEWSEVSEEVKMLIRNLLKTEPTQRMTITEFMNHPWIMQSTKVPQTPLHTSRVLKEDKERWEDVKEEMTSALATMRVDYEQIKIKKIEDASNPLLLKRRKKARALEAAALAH
# ASSAY EXPLANATION: Inhibition of MK2 using Fluo-betaA-11A NeoMPS as substrate pre-incubated for 30 mins before substrate addition measured after 2 hrs by IMAP assay
The quantity pEC50 is defined as the negative base-10 logarithm of the molar concentration.

Check out these entries, answers already filled in.
O=C(Nc1cc(-c2cc3c([nH]2)C2(CCNC2)CNC3=O)ccn1)c1ccccn1 (racemic) :: 8.39
O=C(Nc1cc(-c2cc3c([nH]2)C2(CCNCC2)CNC3=O)ccn1)c1ccc2ccccc2c1 :: 9.14
O=C(Nc1cc(-c2cc3c([nH]2)C2(CCCNC2)CNC3=O)ccn1)c1cccc(OC(F)(F)F)c1 (racemic) :: 7.96
O=C(Nc1cc(-c2cc3c([nH]2)C2(CCNC2)CNC3=O)ccn1)c1ccc2ccccc2c1 (racemic) :: 9.21
Cc1ccc(C(=O)Nc2cc(-c3cc4c([nH]3)C3(CCCNC3)CNC4=O)ccn2)cc1C (racemic) :: 8.09

# compound Cc1ccc(C(=O)Nc2cc(-c3cc4c([nH]3)C3(CCN(C)CC3)CNC4=O)ccn2)cc1C ; its pEC50 = 8.64

# compound O=C(Nc1cc(-c2cc3c([nH]2)C2(CCCNC2)CNC3=O)ccn1)c1ccc(F)cc1 (racemic) ; its pEC50 = 8.05

# compound CN1CCC2(CC1)CNC(=O)c1cc(-c3ccnc(NC(=O)c4cccc(OC(F)(F)F)c4)c3)[nH]c12 ; its pEC50 = 8.57

* * *

# Test system: PBMC
# ASSAY EXPLANATION: Inhibition of LPS-induced TNFalpha production in human PBMC pre-incubated for 30 mins prior to LPS-induction measured after 4 hrs by ELISA
# Format: functional, cell-based
# CONDITION DETAILS: Homo sapiens, PBMC
QUANTITY KIND: pEC50
The quantity pEC50 is defined as the negative base-10 logarithm of the molar concentration.

O=C(Nc1cc(-c2cc3c([nH]2)C2(CCCNC2)CNC3=O)ccn1)c1cccc(C(F)(F)F)c1 (racemic) :: 6.85
Cc1ccc(C(=O)Nc2cc(-c3cc4c([nH]3)C3(CCNC3)CNC4=O)ccn2)cc1C (racemic) :: 6.82
O=C(Nc1cc(-c2cc3c([nH]2)C2(CCNCC2)CNC3=O)ccn1)c1cccc(F)c1 :: 6.82
O=C(Nc1cc(-c2cc3c([nH]2)C2(CCNCC2)CNC3=O)ccn1)c1ccncc1 :: 5.59
Cc1ccc(C(=O)Nc2cc(-c3cc4c([nH]3)C3(CCNCC3)CNC4=O)ccn2)cc1C :: 6.05
O=C1NCC2(CCCNC2)c2[nH]c(-c3ccnc(NC(=O)c4cccc5ccccc45)c3)cc21 (racemic) :: 6.41
O=C(Nc1cc(-c2cc3c([nH]2)C2(CCNC2)CNC3=O)ccn1)c1cccc(OC(F)(F)F)c1 (racemic) :: 6.19
O=C(Nc1cc(-c2cc3c([nH]2)C2(CCCNC2)CNC3=O)ccn1)c1ccc(C(F)(F)F)cc1 (racemic) :: 6.32

# compound O=C(Nc1cc(-c2cc3c([nH]2)C2(CCNCC2)CNC3=O)ccn1)c1ccc(F)cc1 ; its pEC50 = 5.85

# compound O=C(Nc1cc(-c2cc3c([nH]2)C2(CCNC2)CNC3=O)ccn1)c1ccc(F)cc1 (racemic) ; its pEC50 = 6.70

# compound CN1CCC2(CC1)CNC(=O)c1cc(-c3ccnc(NC(=O)c4cccc(OC(F)(F)F)c4)c3)[nH]c12 ; its pEC50 = 7.30

# compound O=C(Nc1cc(-c2cc3c([nH]2)C2(CCCNC2)CNC3=O)ccn1)c1cccc(OC(F)(F)F)c1 (racemic) ; its pEC50 = 6.70

# compound CN1CCC2(CC1)CNC(=O)c1cc(-c3ccnc(NC(=O)c4cccc(F)c4)c3)[nH]c12 ; its pEC50 = 7.52

# compound O=C(Nc1cc(-c2cc3c([nH]2)C2(CCNCC2)CNC3=O)ccn1)c1ccccn1 ; its pEC50 = 6.59

# compound O=C(Nc1cc(-c2cc3c([nH]2)C2(CCNCC2)CNC3=O)ccn1)c1cccc(OC(F)(F)F)c1 ; its pEC50 = 6.80

# compound O=C(Nc1cc(-c2cc3c([nH]2)C2(CCNCC2)CNC3=O)ccn1)c1ccc(C(F)(F)F)cc1 ; its pEC50 = 5.80

# compound CN1CCC2(CC1)CNC(=O)c1cc(-c3ccnc(NC(=O)c4ccc5ccccc5c4)c3)[nH]c12 ; its pEC50 = 7.15
